# System: JJN-3 (NIK translocated) multiple myeloma cells
# ASSAY_TEXT: Antiproliferative activity on JJN-3 multiple myeloma cells (CellTiter-Glo)
# Type: cell-based, human
# PARTICULARS: Homo sapiens, JJN-3, 96 h, JJN-3 (NIK translocated) cells, 96 hr treatment, averaged values, read-out: JJN-3 Proliferation inhibition (IC50 (nM))
# Description: Determination of Antiproliferative Activity on JJN-3 (NIK Translocated) and KMS12-BM (NIK WT) Multiple Myeloma Cells All compounds tested were dissolved in DMSO and further dilutions were made in culture medium. […] Viability was assessed using CellTiter-Glo cell viability assay kit (Promega). […] Luminescence was measured on a HTS Topcount (Perkin Elmer). […] For each experiment, controls (containing no drug) and a blank incubation (containing cells read at the time of compound addition) were run in parallel. […]
I'd appreciate it if you marked entries met when IC50 is lower than 300 nM and not met when it is not.

>>> print(df.to_string())
                                   molecule  label_class
0  COCCNc1nc(OC)c(Nc2nccc(-c3cc(C#N)c4c(c3)C(C)(C)CN4)n2)cc1Cl      not met
1  COCCOc1ncccc1Nc1ncc(F)c(-c2cc(C#N)c3c(c2)[C@@](C)(CO)CN3)n1          met
2  COc1nc(CC(C)C)c(Nc2nccc(-c3cc(C#N)c4c(c3)[C@@](C)(CO)CN4)n2)cc1C      not met
3  COCCOc1ncc(Cl)cc1Nc1nccc(-c2cc(C#N)c3c(c2)[C@@](C)(CO)CN3)n1      not met
4  Cc1cc(Nc2nccc(-c3cc(C#N)c4c(c3)[C@@](C)(CO)CN4)n2)c(C)cn1          met
5  CC1(CO)CNc2c(C#N)cc(-c3ccnc(Nc4cncnc4)n3)cc21 (centres unmarked)          met
6  COCCOc1nc(C(F)(F)F)ccc1Nc1nccc(-c2cc(C#N)c3c(c2)[C@@](C)(CO)CN3)n1      not met

----------
# System: JJN-3 (NIK translocated) multiple myeloma cells
# ASSAY_TEXT: Antiproliferative activity on JJN-3 multiple myeloma cells (CellTiter-Glo)
# Format: cell-based, human
# PARTICULARS: Homo sapiens, JJN-3, 96 h, JJN-3 (NIK translocated) cells, 96 hr treatment, averaged values, read-out: JJN-3 Proliferation inhibition (IC50 (nM))
Here the recorded IC50 is given for each entry.
OUTCOME_MEASURE: IC50 (nM)

>>> print(df.to_string())
                                   molecule                              assay_target  recorded_number
0  Cc1cc(Nc2nccc(-c3cc(C#N)c4c(c3)[C@@](C)(CO)CN4)n2)c(CCC2CC2)nc1P(C)(C)=O  JJN-3 (NIK translocated) multiple myeloma cells               65
1  Cc1cc(Nc2nccc(-c3cc(C#N)c4c(c3)[C@@](C)(CO)CN4)n2)c(C)nc1OCC1(C)COC1  JJN-3 (NIK translocated) multiple myeloma cells               89
2  CCOc1ncc(Cl)cc1Nc1nccc(-c2cc(C#N)c3c(c2)[C@@](C)(CO)CN3)n1  JJN-3 (NIK translocated) multiple myeloma cells              794
3  CC(C)Oc1ncccc1Nc1nccc(-c2cc(C#N)c3c(c2)C(C)(CO)CN3)n1 (stereo not shown)  JJN-3 (NIK translocated) multiple myeloma cells              776
